Listed here are compounds together with their documented T/C.
test system: P388 leukemia ip, CD2F1 mice, survival T/C; assay: NCI In Vivo Anticancer Drug Screen. Data for tumor model P388 Leukemia (intraperitoneal) in CD2F1 (CDF1) mice; conditions: endpoint: median survival time; dose: 60.0 mg/kg/injection; schedule: Q01DX005 (ip); vehicle: saline with Tween-80; higher = longer survival
Inconclusive results and toxic doses are left out.
READOUT_TYPE: T/C

> print(dat)
                                   compound                               test.system  readout.type          measured
1              COC(=O)c1nc(SC)[nH]c1CC(N)=O  P388 leukemia ip, CD2F1 mice, survival T/C           T/C  101 % of control
2   CN(c1ccccc1)c1c(Cl)c(=O)oc2c1ccc1occc12  P388 leukemia ip, CD2F1 mice, survival T/C           T/C  106 % of control
3  COc1ccc(C(c2c(O)c3ccccc3oc2=O)N2CCOCC2)c(OC)c1 (stereo unspecified)  P388 leukemia ip, CD2F1 mice, survival T/C           T/C   99 % of control
4         CCOC(=O)N/N=C(\C)c1nc2ccccc2[nH]1  P388 leukemia ip, CD2F1 mice, survival T/C           T/C  101 % of control
5  COc1cc(C(Nc2ccccn2)c2cc3c(cc2OC(C)=O)OCO3)cc(OC)c1OC (stereo unspecified)  P388 leukemia ip, CD2F1 mice, survival T/C           T/C  104 % of control
6         CN(C)Cc1cn(C[Si](C)(C)C)c2ccccc12  P388 leukemia ip, CD2F1 mice, survival T/C           T/C  112 % of control

----------
system: P388 leukemia ip, CD2F1 mice, survival T/C; assay: NCI In Vivo Anticancer Drug Screen. Data for tumor model P388 Leukemia (intraperitoneal) in CD2F1 (CDF1) mice; details: endpoint: median survival time; dose: 120.0 mg/kg/injection; schedule: Q01DX005 (ip); vehicle: saline; higher = longer survival
Inconclusive results and toxic doses are left out.
As shown below, each of these molecules has a reported T/C value.
READOUT_TYPE: T/C

> print(dat)
                                   molecule                               test.system  readout.type          measured
1  COC(=O)C1(CC(=O)C=C(C)C)NC(=S)NC(=O)C1C#N (stereo not drawn)  P388 leukemia ip, CD2F1 mice, survival T/C           T/C  103 % of control
2          [N-]=[N+]=NCCOCn1ccc(=O)[nH]c1=O  P388 leukemia ip, CD2F1 mice, survival T/C           T/C  108 % of control
3  Oc1ccc2c(c1O)/C(=C/C=NCC1(O)OCC(O)C(O)C1O)C=N2 (stereo not drawn)  P388 leukemia ip, CD2F1 mice, survival T/C           T/C   98 % of control

----------
tested on: P388 leukemia ip, CD2F1 mice, survival T/C; test: NCI In Vivo Anticancer Drug Screen. Data for tumor model P388 Leukemia (intraperitoneal) in CD2F1 (CDF1) mice; details: endpoint: median survival time; dose: 400.0 mg/kg/injection; schedule: Q04DX002 (ip); vehicle: saline with Tween-80; higher = longer survival
Inconclusive results and toxic doses are left out.

COMPOUND	TEST_SYSTEM	T/C
Cc1nc2ccccc2c(=O)n1NC(=S)Nc1ccc(Cl)cc1	P388 leukemia ip, CD2F1 mice, survival T/C	90 % of control
CC(C)(C)OC(=O)c1ccc(C(=O)OC(C)(C)C)cc1	P388 leukemia ip, CD2F1 mice, survival T/C	96 % of control
CC1=C(C)SC(=C2SC=CS2)S1	P388 leukemia ip, CD2F1 mice, survival T/C	95 % of control
O=c1c(CS(=O)(=O)c2ccccc2)c(-c2ccccc2)c1=O	P388 leukemia ip, CD2F1 mice, survival T/C	97 % of control
Cc1cccc(N=C(C2=C(O)c3ccccc3C2=O)c2ccccc2)c1	P388 leukemia ip, CD2F1 mice, survival T/C	97 % of control
O=C1C=CCCCC1(c1ccccc1)c1ccccc1	P388 leukemia ip, CD2F1 mice, survival T/C	96 % of control
O=C(Oc1ccccc1)C1CC2(C1)CC(C(=O)Oc1ccccc1)C2 (configuration not stated)	P388 leukemia ip, CD2F1 mice, survival T/C	99 % of control
O=C1c2cc([N+](=O)[O-])cc3cc([N+](=O)[O-])cc(c23)C(=O)N1CCN1CCN(CCN2C(=O)c3cc([N+](=O)[O-])cc4cc([N+](=O)[O-])cc(c34)C2=O)CC1	P388 leukemia ip, CD2F1 mice, survival T/C	94 % of control
CCCCOP(O)(=S)OCCCC.[Yb]	P388 leukemia ip, CD2F1 mice, survival T/C	99 % of control
CCOC(=O)C1C(=O)N2C(=O)C(NC(C)=O)=C(O)C2C1c1ccc(C)cc1 (configuration not stated)	P388 leukemia ip, CD2F1 mice, survival T/C	104 % of control
O=C1NNC(c2ccccc2)=Nc2[nH]ncc21	P388 leukemia ip, CD2F1 mice, survival T/C	93 % of control
COCNC(=S)c1cc(C(=S)NCOC)c(C(=O)NC(C)(C)C)nc1C(=O)NC(C)(C)C	P388 leukemia ip, CD2F1 mice, survival T/C	93 % of control
Clc1ccc(-n2cnn3c(-c4ccccc4)ncc23)cc1	P388 leukemia ip, CD2F1 mice, survival T/C	93 % of control
CCOC(=O)/C(O)=C/C1=CC(=O)CC(C)(C)C1	P388 leukemia ip, CD2F1 mice, survival T/C	103 % of control
OCC(O)/C=C/c1ccccc1 (configuration not stated)	P388 leukemia ip, CD2F1 mice, survival T/C	99 % of control
CCOC(=O)C(C(=O)OCC)=C(C)/C=C/C(Cl)(Cl)Cl	P388 leukemia ip, CD2F1 mice, survival T/C	98 % of control
COC(=O)c1c(-c2ccc(OC)c(OC)c2)c(C=O)n(C)c1C	P388 leukemia ip, CD2F1 mice, survival T/C	90 % of control

Origin of measurements: PubChem BioAssay AID330
